A collection of compounds and their measured IC50
- Tested on: HEK-293T
- procedure_details: Antiproliferative activity against human 293T cells incubated for 48 hrs by MTT assay
- Assay type: cell-based
result_type: IC50 (µM)

• COc1cccc(-c2cc(C(=O)N3CCSCC3)nn2-c2ccc(S(N)(=O)=O)cc2)c1 = 177
• NS(=O)(=O)c1ccc(-n2nc(C(=O)NCCN3CCOCC3)cc2-c2ccccc2)cc1 = 151
• NS(=O)(=O)c1ccc(-n2nc(C(=O)N3CCSCC3)cc2-c2cccc(F)c2)cc1 = 176
• NS(=O)(=O)c1ccc(-n2nc(C(=O)N3CCOCC3)cc2-c2ccc(Br)cc2)cc1 = 160
• CCOc1ccc(-c2cc(C(=O)N3CCOCC3)nn2-c2ccc(S(N)(=O)=O)cc2)cc1 = 116
• NS(=O)(=O)c1ccc(-n2nc(C(=O)NCCN3CCOCC3)cc2-c2ccc(F)cc2)cc1 = 112
• COc1ccc(-c2cc(C(=O)NCCN3CCOCC3)nn2-c2ccc(S(N)(=O)=O)cc2)cc1 = 144
• Cc1ccc(-c2cc(C(=O)N3CCSCC3)nn2-c2ccc(S(N)(=O)=O)cc2)cc1 = 106
• NS(=O)(=O)c1ccc(-n2nc(C(=O)OCCCN3CCOCC3)cc2-c2ccc(Cl)cc2)cc1 = 189
• CCOc1ccc(-c2cc(C(=O)NCCCN3CCOCC3)nn2-c2ccc(S(N)(=O)=O)cc2)cc1 = 138
• NS(=O)(=O)c1ccc(-n2nc(C(=O)N3CCSCC3)cc2-c2ccc(Cl)cc2)cc1 = 232
• Cc1ccc(-c2cc(C(=O)N3CCOCC3)nn2-c2ccc(S(N)(=O)=O)cc2)cc1 = 190
• NS(=O)(=O)c1ccc(-n2nc(C(=O)N3CCOCC3)cc2-c2ccc(C(F)(F)F)cc2)cc1 = 199
• CCOc1ccc(-c2cc(C(=O)OCCCN3CCOCC3)nn2-c2ccc(S(N)(=O)=O)cc2)cc1 = 179
• CCOc1ccc(-c2cc(C(=O)N3CCSCC3)nn2-c2ccc(S(N)(=O)=O)cc2)cc1 = 169
• NS(=O)(=O)c1ccc(-n2nc(C(=O)OCCCN3CCOCC3)cc2-c2ccccc2)cc1 = 95.5
• NS(=O)(=O)c1ccc(-n2nc(C(=O)N3CCSCC3)cc2-c2cccc(Cl)c2)cc1 = 191
• NS(=O)(=O)c1ccc(-n2nc(C(=O)OCCCN3CCOCC3)cc2-c2ccc(C(F)(F)F)cc2)cc1 = 179
• COc1ccc(-c2cc(C(=O)OCCCN3CCOCC3)nn2-c2ccc(S(N)(=O)=O)cc2)cc1 = 169
• COc1ccc(-c2cc(C(=O)N3CCSCC3)nn2-c2ccc(S(N)(=O)=O)cc2)cc1 = 211
• NS(=O)(=O)c1ccc(-n2nc(C(=O)N3CCOCC3)cc2-c2ccccc2)cc1 = 184
• NS(=O)(=O)c1ccc(-n2nc(C(=O)N3CCSCC3)cc2-c2ccc(C(F)(F)F)cc2)cc1 = 136
• NS(=O)(=O)c1ccc(-n2nc(C(=O)NCCN3CCOCC3)cc2-c2ccc(Cl)cc2)cc1 = 112
• NS(=O)(=O)c1ccc(-n2nc(C(=O)O)cc2-c2ccc(C(F)(F)F)cc2)cc1 = 190
• COc1ccc(-c2cc(C(=O)N3CCOCC3)nn2-c2ccc(S(N)(=O)=O)cc2)cc1 = 207
• NS(=O)(=O)c1ccc(-n2nc(C(=O)NCCCN3CCOCC3)cc2-c2ccccc2)cc1 = 156
• NS(=O)(=O)c1ccc(-n2nc(C(=O)N3CCOCC3)cc2-c2cccc(Cl)c2)cc1 = 114
• NS(=O)(=O)c1ccc(-n2nc(C(=O)N3CCOCC3)cc2-c2ccc(F)cc2)cc1 = 206
• Cc1ccc(-c2cc(C(F)(F)F)nn2-c2ccc(S(N)(=O)=O)cc2)cc1 = 97.9
• NS(=O)(=O)c1ccc(-n2nc(C(=O)NCCCN3CCOCC3)cc2-c2ccc(C(F)(F)F)cc2)cc1 = 194
• NS(=O)(=O)c1ccc(-n2nc(C(=O)N3CCSCC3)cc2-c2ccc(F)cc2)cc1 = 174
• NS(=O)(=O)c1ccc(-n2nc(C(=O)OCCN3CCOCC3)cc2-c2ccc(F)cc2)cc1 = 146
• COc1ccc(-c2cc(C(=O)NCCCN3CCOCC3)nn2-c2ccc(S(N)(=O)=O)cc2)cc1 = 200
• NS(=O)(=O)c1ccc(-n2nc(C(=O)OCCN3CCOCC3)cc2-c2ccc(Cl)cc2)cc1 = 122
• CCOc1ccc(-c2cc(C(=O)OCCN3CCOCC3)nn2-c2ccc(S(N)(=O)=O)cc2)cc1 = 116

These data points were gathered from ChEMBL document CHEMBL4346661.
